assay-setup: in n-hexane, 313.15 K
quantity-measured: solubility (mole fraction)
When you answer, write just the number.

Data point: CCOC(=O)CCC(=O)O[C@H]1[C@H](O[C@@H]2[C@@H](C)[C@H](O[C@H]3C[C@@](C)(OC)[C@@H](O)[C@H](C)O3)[C@@H](C)C(=O)O[C@H](CC)[C@@](C)(O)[C@H](O)[C@@H](C)C(=O)[C@H](C)C[C@@]2(C)O)O[C@H](C)C[C@@H]1N(C)C ; solubility (mole fraction) = 0.000371

---

assay-setup: in acetone, 298.15 K
quantity-measured: solubility (mole fraction)
# print the numeric value only

Form: compound = CCOC(=O)CCC(=O)O[C@H]1[C@H](O[C@@H]2[C@@H](C)[C@H](O[C@H]3C[C@@](C)(OC)[C@@H](O)[C@H](C)O3)[C@@H](C)C(=O)O[C@H](CC)[C@@](C)(O)[C@H](O)[C@@H](C)C(=O)[C@H](C)C[C@@]2(C)O)O[C@H](C)C[C@@H]1N(C)C ; solubility (mole fraction) = 0.0219
